- Test system: L1210 leukemia ip in BDF1 mice, survival T/C
- Experiment Description: NCI In Vivo Anticancer Drug Screen. Data for tumor model L1210 Leukemia (intraperitoneal) in B6D2F1 (BDF1) mice
- Test Conditions: endpoint: mean survival time; dose: 100.0 mg/kg/injection; schedule: Q01DX001 (ip); vehicle: carboxymethylcellulose (CMC); higher = longer survival
- Experimental: The antitumor activity of compounds was measured in mice bearing transplantable tumors. Survival or tumor size were measured and the results are expressed as the measurement made in the treated group (T) divided by the measurement made in the vehicle treated control group (C). The tumor model used in this assay is L1210 Leukemia (intraperitoneal) in B6D2F1 (BDF1) mice
Inconclusive results and toxic doses are left out.
Recorded Metric: T/C

{"Molecule": "O=C(N/N=C\\c1ccccc1Cl)c1ccco1", "Subject Of Test": "L1210 leukemia ip in BDF1 mice, survival T/C", "T/C": "92 % of control"}
{"Molecule": "ClCCN(CCCl)c1ccc(-c2csc(Cc3ccccc3)n2)cc1", "Subject Of Test": "L1210 leukemia ip in BDF1 mice, survival T/C", "T/C": "93 % of control"}
{"Molecule": "CCCCC(=O)N/N=C\\c1cccc(I)c1", "Subject Of Test": "L1210 leukemia ip in BDF1 mice, survival T/C", "T/C": "87 % of control"}
{"Molecule": "Cc1ccc(NC(=O)N(CCCCl)N=O)cc1", "Subject Of Test": "L1210 leukemia ip in BDF1 mice, survival T/C", "T/C": "115 % of control"}
{"Molecule": "COc1ccc2[nH]c3c(c(=O)c2c1)CCCC3", "Subject Of Test": "L1210 leukemia ip in BDF1 mice, survival T/C", "T/C": "95 % of control"}
{"Molecule": "CC(=Nc1ccccc1)C1=C(O)C(CC(C)C)NC1=O (stereo unspecified)", "Subject Of Test": "L1210 leukemia ip in BDF1 mice, survival T/C", "T/C": "104 % of control"}
{"Molecule": "ClCCN(CCCl)c1ccc(C=Nc2cccc(Cl)c2)cc1", "Subject Of Test": "L1210 leukemia ip in BDF1 mice, survival T/C", "T/C": "100 % of control"}
{"Molecule": "C[n+]1c(/C=C/c2ccc(O)c3ncccc23)[se]c2ccccc21", "Subject Of Test": "L1210 leukemia ip in BDF1 mice, survival T/C", "T/C": "95 % of control"}
{"Molecule": "Cc1ccc(-c2ccno2)cc1", "Subject Of Test": "L1210 leukemia ip in BDF1 mice, survival T/C", "T/C": "96 % of control"}
{"Molecule": "CC(=O)NC(C)(CCOCc1ccccc1)C(=O)O (stereo unspecified)", "Subject Of Test": "L1210 leukemia ip in BDF1 mice, survival T/C", "T/C": "100 % of control"}

Would you kindly share the measured T/C for CC1(Cl)C(=O)NN=C1c1ccc([N+](=O)[O-])cc1 (stereo unspecified) ?
102 % of control

Would you kindly share the measured T/C for `CCCCCCc1cc(N=Nc2ccc(S(=O)(=O)Nc3nnc(C)s3)cc2)c(O)cc1O` ?
98 % of control

Would you kindly share the measured T/C for `Cc1nnc(S(=O)(=O)c2ccc(N=Nc3c(N)nc(N)nc3N)cc2)s1` ?
92 % of control

Would you kindly share the measured T/C for `CC1(C)CCC(C)(C)c2cc(Br)ccc21` ?
103 % of control

###

- System: L1210 leukemia ip in BDF1 mice, survival T/C
- Experiment Description: NCI In Vivo Anticancer Drug Screen. Data for tumor model L1210 Leukemia (intraperitoneal) in B6D2F1 (BDF1) mice
- Test Conditions: endpoint: mean survival time; dose: 50.0 mg/kg/injection; schedule: Q04DX003 (ip); vehicle: Klucel (hydroxypropylcellulose) (HPC); higher = longer survival
Inconclusive results and toxic doses are left out.
Reported T/C by item:

{"Compound": "CCc1ccc2c(c1)Nc1ccccc1S2", "Subject Of Test": "L1210 leukemia ip in BDF1 mice, survival T/C", "Assay Result": "91 % of control"}
{"Compound": "[O-][n+]1c2ccc(Cl)cc2nc2ccc(Cl)cc21", "Subject Of Test": "L1210 leukemia ip in BDF1 mice, survival T/C", "Assay Result": "93 % of control"}
{"Compound": "N#CCc1nc2ccccc2[nH]1", "Subject Of Test": "L1210 leukemia ip in BDF1 mice, survival T/C", "Assay Result": "101 % of control"}

Would you kindly share the measured T/C for Cc1ccc(C(C)C)c(OCC2C(=O)C3CCN2CC3)c1 (configuration not stated) ?
95 % of control

Would you kindly share the measured T/C for `Cn1c(=N)sc2ccc3ccccc3c21` ?
98 % of control

Would you kindly share the measured T/C for O=P(CCl)(NC12CC3CC(CC(C3)C1)C2)N1CC1 (configuration not stated) ?
100 % of control

Would you kindly share the measured T/C for `CCCCCCCCCCCCOC(=O)/C=C\C(=O)NC(N)=O` ?
97 % of control

###

Reported T/C by item:
- System: L1210 leukemia ip in BDF1 mice, survival T/C
- Experiment Description: NCI In Vivo Anticancer Drug Screen. Data for tumor model L1210 Leukemia (intraperitoneal) in B6D2F1 (BDF1) mice
- Test Conditions: endpoint: mean survival time; dose: 12.5 mg/kg/injection; schedule: Q01DX009 (ip); vehicle: Klucel (hydroxypropylcellulose) (HPC); higher = longer survival
Toxic doses and inconclusive results are not listed.

# example entries with known answers
{"Chemical String": "CC(=O)C(CCC#N)C(C)=O.CC(=O)C(CCC#N)C(C)=O.[Cu]", "T/C": "98 % of control"}
{"Chemical String": "N#CCC(=O)c1ccccc1", "T/C": "113 % of control"}
{"Chemical String": "CCN(CC)CCN(CC)C(=S)Nc1ccccc1", "T/C": "117 % of control"}

Kindly consider the entry below.
Would you kindly share the measured T/C for `O=[N+]([O-])c1ccc(S)c(Cl)c1` ?
104 % of control

###

Reported T/C by item:
- System: L1210 leukemia ip in BDF1 mice, survival T/C
- Experiment Description: NCI In Vivo Anticancer Drug Screen. Data for tumor model L1210 Leukemia (intraperitoneal) in B6D2F1 (BDF1) mice
- Test Conditions: endpoint: mean survival time; dose: 5.0 mg/kg/injection; schedule: Q01DX001 (ip); vehicle: saline; higher = longer survival
Toxic doses and inconclusive results are not listed.

# example entries with known answers
{"Chemical String": "CNc1cc(N2CCCC2)ccn1", "Assay Result": "104 % of control"}
{"Chemical String": "O=c1[nH]c2cnn(-c3ccccc3)c2c(=O)n1OS(=O)(=O)c1ccccc1", "Assay Result": "103 % of control"}
{"Chemical String": "Cc1c(-[n+]2ccccc2)[nH]c2ccccc12", "Assay Result": "103 % of control"}

Would you kindly share the measured T/C for `CC1(C)N=C(N)N=C(N)N1c1cccc(OCCOc2cccc(N)c2)c1` ?
91 % of control

###

- Tested on: L1210 leukemia ip in BDF1 mice, survival T/C
- Experiment Description: NCI In Vivo Anticancer Drug Screen. Data for tumor model L1210 Leukemia (intraperitoneal) in B6D2F1 (BDF1) mice
- Test Conditions: endpoint: mean survival time; dose: 200.0 mg/kg/injection; schedule: Q04DX003 (ip); vehicle: saline with Tween-80; higher = longer survival
Inconclusive results and toxic doses are left out.
Recorded Metric: T/C

# example entries with known answers
{"Compound": "Cc1c(Cl)cccc1N1C(=O)CC(Sc2ccccc2N)C1=O (stereo not given)", "Assay Result": "88 % of control"}
{"Compound": "NC(=O)CN1C(=O)C2C3C=CC(C3)C2C1=O (stereo not given)", "Assay Result": "109 % of control"}
{"Compound": "CCCCSc1nc2ccccc2[nH]1", "Assay Result": "97 % of control"}
{"Compound": "Cc1ccc(C(N)=O)cn1", "Assay Result": "107 % of control"}
{"Compound": "CC(=O)OCC1OC(C(N)=O)C(OC(C)=O)C1OC(C)=O (stereo not given)", "Assay Result": "104 % of control"}
{"Compound": "Cc1cc(N(CCCOS(C)(=O)=O)CCCOS(C)(=O)=O)ccc1C=Nc1cccc(Cl)c1", "Assay Result": "98 % of control"}

Would you kindly share the measured T/C for Cc1ccc(NC(=O)C2C3C=CC(C3)C2C(=O)Nc2ccc(C)cc2)cc1 (stereo not given) ?
96 % of control

Would you kindly share the measured T/C for CCC(C)(O)C#Cc1ccc(C)nc1 (stereo not given) ?
96 % of control

Would you kindly share the measured T/C for `c1ccc(SCc2ncc3cnccn23)cc1` ?
94 % of control

Would you kindly share the measured T/C for `Cc1cc([N+](=O)[O-])c2ccccc2c1N(CC(=O)O)S(=O)(=O)c1ccccc1` ?
97 % of control

Would you kindly share the measured T/C for `COc1ccccc1C(=O)C=C(C(F)(F)F)C(F)(F)F` ?
97 % of control

Would you kindly share the measured T/C for `COC(=O)C1=CNC=C(C(=O)OC)C1c1ccc(OC)cc1` ?
96 % of control

Would you kindly share the measured T/C for `CCCCn1c(=O)cc(C(=O)O)c2ccccc21` ?
101 % of control

Would you kindly share the measured T/C for `O=C1CC(=O)NC(=O)N1` ?
93 % of control

Would you kindly share the measured T/C for CC[N+]1(C)CCC(CN2c3ccccc3Sc3ccccc32)C1 (stereo not given) ?
103 % of control

Would you kindly share the measured T/C for `C#CCSC(=S)NNc1ccccc1` ?
97 % of control

Would you kindly share the measured T/C for `CC(C)(Br)C(=O)c1ccc(Cl)s1` ?
107 % of control

Would you kindly share the measured T/C for `COC(=O)c1ccc([N+](=O)[O-])cc1O` ?
102 % of control

Would you kindly share the measured T/C for `C(CC1CCCCC1)=C(CCC1CCCCC1)CCC1CCCCC1` ?
105 % of control

Would you kindly share the measured T/C for `CC(=O)Nc1ccc2oc(=O)ccc2c1` ?
105 % of control
